- measured-on: KRAS (aa 1-169) G12C, C51S, C80L, C118S (Homo sapiens (Human), UniProt P01116, C118S/C51S/C80L/G12C)
- Sequence (P01116 other isoform, or with tags, fused parts or gaps G12C/C51S/C80L/C118S): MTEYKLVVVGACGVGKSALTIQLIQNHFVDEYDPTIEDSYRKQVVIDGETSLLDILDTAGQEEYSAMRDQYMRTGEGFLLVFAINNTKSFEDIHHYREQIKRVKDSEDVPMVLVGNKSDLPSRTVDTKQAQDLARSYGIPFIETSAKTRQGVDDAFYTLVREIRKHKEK
- assay-details: KRAS G12C SOS1-mediated nucleotide exchange / cRaf RBD binding FRET assay (Biochemical Functional Assay)
- run-parameters: GDP-loaded KRAS G12C pre-incubated with compound at 24° C. for 3 hrs; SOS1, GTPγS, GST-cRaf RBD; inhibition of nucleotide exchange
With a cut-off of 200 nM, any IC50 strictly below it is called satisfied; any IC50 meeting it or above is called not satisfied.

# example entries with known answers
C=CC(=O)N1CCN(c2nc(OC[C@@H]3CCCN3C)nn3c(Cc4cccc5c4CCO5)cnc23)C[C@@H]1CC#N : not satisfied
C=CC(=O)N1CCN(c2nc(OC[C@@H]3CCCN3C)nn3c(Cc4ccccc4Cl)cnc23)C[C@@H]1CC#N : not satisfied
C=CC(=O)N1CCN(c2nc(OC[C@@H]3C[C@@H](F)CN3C)nc3c(Cc4cc(O)cc5ccccc45)cn(C)c23)C[C@@H]1CC#N : satisfied
C=CC(=O)N1CCN(c2nc(OC[C@@H]3CCCN3C)nn3c(Cc4c(O)ccc5ccccc45)cnc23)C[C@@H]1CC#N : satisfied
C=CC(=O)N1CCN(c2nc(OC[C@@H]3CCCN3C)nc3c(Cc4cc(O)cc5ccccc45)cn(C)c23)C[C@@H]1CC#N : satisfied

Strictly below 200 nM: is that where IC50 of C=CC(=O)N1CCN(c2nc(OC[C@@H]3CCCN3C)nn3c(Cc4ccccc4C(F)(F)F)cnc23)C[C@@H]1CC#N sits?
not satisfied

Strictly below 200 nM: is that where IC50 of C=C(F)C(=O)N1CCN(c2nc(OC[C@@H]3CCCN3C)nc3c(Cc4c(Cl)c(F)cc5[nH]ncc45)c[nH]c23)C[C@@H]1CC#N sits?
not satisfied

Strictly below 200 nM: is that where IC50 of C=CC(=O)N1CCN(c2nc(OC[C@@H]3CCCN3C)nn3c(Cc4c(F)cccc4Cl)cnc23)C[C@@H]1CC#N sits?
not satisfied

Strictly below 200 nM: is that where IC50 of C=CC(=O)N1CCN(c2nc(OC[C@@H]3CCCN3C)nn3c(Cc4ccc(OC)c5ccccc45)cnc23)C[C@@H]1CC#N sits?
satisfied

Strictly below 200 nM: is that where IC50 of C=CC(=O)N1CCN(c2nc(OC[C@@H]3CCCN3C)nn3c(Cc4ccc5ccccc5c4)cnc23)C[C@@H]1CC#N sits?
not satisfied

Strictly below 200 nM: is that where IC50 of C=CC(=O)N1CCN(c2nc(OC[C@@H]3CC(F)(F)CN3C)nn3c(Cc4cccc5ccccc45)cnc23)C[C@@H]1CC#N sits?
not satisfied

Strictly below 200 nM: is that where IC50 of C=CC(=O)N1CCN(c2nc(OC[C@@H]3CCCN3C)nn3c(C(=O)c4cccc5ccccc45)cnc23)C[C@@H]1CC#N sits?
not satisfied

---

- measured-on: KRAS (aa 1-169) G12C, C51S, C80L, C118S (Homo sapiens (Human), UniProt P01116, C118S/C51S/C80L/G12C)
- assay-details: KRAS G12C SOS1-mediated nucleotide exchange / cRaf RBD binding FRET assay (Biochemical Functional Assay)
- run-parameters: GDP-loaded KRAS G12C pre-incubated with compound at 24° C. for 3 hrs; SOS1, GTPγS, GST-cRaf RBD; inhibition of nucleotide exchange
Reported IC50 values for a set of compounds
Report field: quantity (unit follows the number).

What the record says about C=CC(=O)N1CCN(c2nc(OC[C@@H]3CCCN3C)nc3c(Cc4cc(O)cc5ccccc45)cn(C)c23)CC1 : IC50 is 329 nM

What the record says about C=CC(=O)N1CCN(c2nc(OC[C@@H]3CCCN3C)nn3c(Cc4c(O)cccc4F)cnc23)C[C@@H]1CC#N : IC50 is 19.1 nM

What the record says about C=CC(=O)N1CCN(c2nc(OC[C@@H]3CCCN3C)nc3c(Cc4c(C(F)(F)F)ccc5[nH]ncc45)c[nH]c23)C[C@@H]1CC#N : IC50 is 64.1 nM

What the record says about C=CC(=O)N1CCN(c2nc(OC[C@@H]3CCCN3C)nn3c(Cc4ccc(O)c5ccccc45)cnc23)C[C@@H]1CC#N : IC50 is 9.6 nM

What the record says about C=CC(=O)N1CCN(c2nc(OC[C@@H]3CCCN3C)nn3c(Cc4cccc5ccccc45)cnc23)[C@@H](C)C1 : IC50 is 2930 nM

What the record says about C=CC(=O)N1CCN(c2nc(OC[C@@H]3CCCN3C)nn3c(Cc4cc(O)cc5ccccc45)cnc23)CC1 : IC50 is 427 nM

What the record says about C=CC(=O)N1CCN(c2nc(OC[C@@H]3CCCN3C)nn3c(Cc4cccc5cccc(C)c45)cnc23)C[C@@H]1CC#N : IC50 is 47.8 nM

What the record says about C=CC(=O)N1CCN(c2nc(OC[C@@H]3CCCN3C)nn3c(Cc4cccc5ccccc45)cnc23)CC1 : IC50 is 3280 nM

What the record says about C=CC(=O)N1CCN(c2nc(OC[C@@H]3CCCN3C)nn3c(Cc4cc(O)cc5ccccc45)cnc23)C[C@@H]1CC#N : IC50 is 29 nM

What the record says about C=CC(=O)N1CCN(c2nc(OC[C@@H]3CCCN3C)nn3c(Cc4cccc5cccc(Cl)c45)cnc23)C[C@@H]1CC#N : IC50 is 100 nM

What the record says about C=CC(=O)N1CCN(c2nc(OC[C@@H]3CCCN3C)nc3c(Cc4cc(O)cc5ccccc45)cn(CC)c23)C[C@@H]1CC#N : IC50 is 13 nM

What the record says about C=CC(=O)N1CCN(c2nc(OC[C@@H]3CCCN3C)nn3c(Cc4cccc5[nH]ncc45)cnc23)C[C@@H]1CC#N : IC50 is 1180 nM

What the record says about C=CC(=O)N1CCN(c2nc(OC[C@@H]3CCCN3C)nn3c(Cc4cccc5ccccc45)cnc23)C[C@@H]1CC#N : IC50 is 46.7 nM

What the record says about C=CC(=O)N1CCN(c2nc(OC[C@@H]3CCCN3C)nn3c(Cc4cccc5c4OCC5)cnc23)C[C@@H]1CC#N : IC50 is 101 nM
